# Test system: EKVX
# PROTOCOL_DESCRIPTION: NCI tumour cell line growth inhibition, 48 h
Activity calls are given as the source filed them. No stated cut-off is given here; in the data, active = GI50 up to about 1.1 µM and inactive = higher.
A collection of compounds and their measured GI50

# annotated cases, reported GI50 shown
                                   compound  test_target             measured
0                      O=C(O)c1cccc(OCCO)c1         EKVX  > 100 µM (inactive)
1  C=C(C)C(=O)OC1C[C@H](COC(C)=O)C2CC=C(C)C2C2OC(=O)C(=C)[C@H]12 (some centres not stated)         EKVX   9.82 µM (inactive)

Task: Answer with reported GI50 of `COc1cccc2c1N[S@](=O)S2`
Output: > 100 µM (inactive)

Task: Answer with reported GI50 of `COc1ccccc1N/C(SCc1ccccc1)=C(/C(Cl)=C(Cl)Cl)[N+](=O)[O-]`
Output: 32 µM (inactive)

Task: Answer with reported GI50 of `CCCCCc1cc(OC(=O)c2c(O)cc(OC)cc2CCCCC)cc(O)c1C(=O)O`
Output: 19 µM (inactive)

Task: Answer with reported GI50 of `S=C=Nc1ccc(CSc2nc3ccccc3[nH]2)cc1`
Output: 20 µM (inactive)

Task: Answer with reported GI50 of `Clc1ccc(CCNC2(c3cc4ccccc4s3)CCCCC2)cc1Cl`
Output: 26.1 µM (inactive)

---

# System: IGROV-1
# PROTOCOL_DESCRIPTION: NCI tumour cell line growth inhibition, 48 h
The source made the active and inactive calls. Rule as the data show it: active = GI50 up to about 1.1 µM and inactive = higher.
A collection of compounds and their measured GI50

Task: Answer with reported GI50 of CC1(SCC(N)C(=O)O)CC(=O)NC1=O (stereo not given)
Output: > 100 µM (inactive)

---

# System: CAKI-1
# PROTOCOL_DESCRIPTION: NCI tumour cell line growth inhibition, 48 h
The source made the active and inactive calls. Cut-off read from the data, not from the text of the source: active = GI50 up to about 1.1 µM and inactive = higher.
A collection of compounds and their measured GI50

>>> df
                                   compound  test_target             measured
0  Oc1nc2c(c(-c3ccccc3Cl)n1)COC/C2=C\c1ccccc1Cl       CAKI-1  > 100 µM (inactive)

Task: Answer with reported GI50 of COC(=O)C(C(=O)C(=O)Nc1ccc([N+](=O)[O-])cc1[N+](=O)[O-])c1nc2ccc(Cl)cc2nc1O (stereo not given)
Output: > 100 µM (inactive)

Task: Answer with reported GI50 of CCCCOP(=O)(OCCCC)C(NS(=O)(=O)c1ccccc1)(C(=O)OCC)C(F)(F)F (stereo not given)
Output: 16.4 µM (inactive)

Task: Answer with reported GI50 of CN(C)CCOC1(Cc2ccc(Cl)cc2Cl)CCC(C(C)(C)C)CC1 (stereo not given)
Output: 15.9 µM (inactive)

Task: Answer with reported GI50 of `CCC(=O)c1cn(C)c(=O)c2ccccc12`
Output: > 100 µM (inactive)

---

# Tested on: SK-OV-3
# PROTOCOL_DESCRIPTION: NCI tumour cell line growth inhibition, 48 h
Active and inactive are the calls of the source. Rule as the data show it: active = GI50 up to about 1.1 µM and inactive = higher.
MEASURED_QUANTITY: GI50

# annotated cases, reported GI50 shown
>>> print(df.to_string())
                              line_notation             measured
0  COc1cc2c(oc(=O)c3cc4cc([Si](C)(C)C)oc4c(OC)c32)c2cccc(O)c12  > 100 µM (inactive)
1  CCOP(=O)(OCC)C(C)(C)N(C)/C(F)=N/C(F)(F)F  > 100 µM (inactive)
2  CN(C)c1cccc(-c2cc(=S)c3cc4c(cc3[nH]2)OCO4)c1   6.14 µM (inactive)

The record that follows has no GI50 shown yet.
Task: Answer with reported GI50 of `c1ccc2/c3[nH]/c(c2c1)=N\c1ccc(cc1)-c1nc2ccc(cc2o1)/N=c1/[nH]/c(c2ccccc12)=N/c1ccc2nc(oc2c1)-c1ccc(cc1)\N=3`
Output: 72.8 µM (inactive)

---

# Tested on: M14
# PROTOCOL_DESCRIPTION: NCI tumour cell line growth inhibition, 48 h
Active and inactive are the calls of the source. Cut-off read from the data, not from the text of the source: active = GI50 up to about 1.1 µM and inactive = higher.
MEASURED_QUANTITY: GI50

# annotated cases, reported GI50 shown
In [3]: df
Out[3]:
                                   molecule  measured_quantity             measured
0                CC(=O)Oc1c(C)n(CCCl)ccc1=O               GI50  > 100 µM (inactive)
1            C[Si](C)(C)C1(Sc2ccccc2)SCCCS1               GI50   49.8 µM (inactive)
2  O=C(Cc1nc2ccccc2o1)C(=O)Nc1ccccc1C(F)(F)F               GI50  > 100 µM (inactive)

Task: Answer with reported GI50 of `CC(C)(C)C(=O)O[C@H]1C=C[C@@H](O)[C@@H]2[C@H]1[C@@H]1C=C[C@H]2C1`
Output: 13.7 µM (inactive)

Task: Answer with reported GI50 of `COC(=O)[C@@H](O)[C@]1(C(=O)OC)C2O[C@@H](OC)[C@@H]1CCCCCC[C@H]2O`
Output: > 100 µM (inactive)

Task: Answer with reported GI50 of O=C(CCN1CCCCC1CO)Nc1ccc2c(c1)C(=O)c1ccc(NC(=O)CCN3CCCCC3CO)cc1C2=O (configuration not stated)
Output: 10.4 µM (inactive)

Task: Answer with reported GI50 of `COCOc1cc(OC)ccc1C/C=N/O`
Output: > 100 µM (inactive)

---

# Test system: T47D
# PROTOCOL_DESCRIPTION: NCI tumour cell line growth inhibition, 48 h
Active and inactive are the calls of the source. No stated cut-off is given here; in the data, active = GI50 up to about 1.1 µM and inactive = higher.
A collection of molecules and their measured GI50

# annotated cases, reported GI50 shown
>>> df
                                   molecule  measured_quantity             measured
0        N=C1/C(=C/c2ccco2)C(=O)N=C2SC=NN12               GI50  > 100 µM (inactive)
1  CCO[C@H]1C[C@@H](c2ccccc2)[C@]2(C)C[C@H](C(=O)OC)ON2O1               GI50  > 100 µM (inactive)
2       C[N+](C)(CCO)CCN1c2ccccc2Sc2ccccc21               GI50   > 10 µM (inactive)
3  COC(=O)Nc1nc2cc(Oc3ccc4nc(NC(=O)OC)[nH]c4c3)ccc2[nH]1               GI50   2.59 µM (inactive)
4                   COCOc1cc(OC)ccc1C/C=N/O               GI50  > 100 µM (inactive)

Task: Answer with reported GI50 of `CN(C)/C=N/n1c2ccccc2c2ccccc21`
Output: > 100 µM (inactive)

Task: Answer with reported GI50 of CC1CC(C)CC(NC2=NCCO2)C1 (stereo not drawn)
Output: > 100 µM (inactive)

Task: Answer with reported GI50 of NCC(=O)C(O)C(O)C(O)CO (stereo not drawn)
Output: > 100 µM (inactive)

---

# Tested on: OVCAR-8
# PROTOCOL_DESCRIPTION: NCI tumour cell line growth inhibition, 48 h
The source made the active and inactive calls. Cut-off read from the data, not from the text of the source: active = GI50 up to about 1.1 µM and inactive = higher.
Reply using exactly one outcome from Y for active, N for inactive

                              line_notation  class_assignment
0  CCc1nc(N)nc(N)c1-c1ccc(Cc2ccccc2)c([N+](=O)[O-])c1                 Y
1  CC(C)CCn1c(=O)c2c(=O)[nH][nH]c2c2ccccc21                 N

Field: next compound
Task: What call does the record list for `Cc1ccc(N2C(=O)CS/C2=C(\C#N)c2nc3ccccc3[nH]2)cc1` ?
Output: N

---

# System: MDA-MB-435
# PROTOCOL_DESCRIPTION: NCI tumour cell line growth inhibition, 48 h
Activity calls are given as the source filed them. Cut-off read from the data, not from the text of the source: active = GI50 up to about 1.1 µM and inactive = higher.
Reply using exactly one outcome from t = active, f = inactive

                                   compound  class_assignment
0             c1ccc2[nH]c3nc4ccccc4c-3cc2c1                 t
1  CC(=O)NC(CS/N=N/c1[nH]cnc1C(N)=O)C(=O)O (centres undefined)                 f
2  CC(=O)[C@@]1(O)CC[C@H]2[C@@H]3C[C@H](C)C4=CC(=O)C=C[C@]4(C)[C@@]3(F)[C@@H](O)C[C@@]21C                 f

Field: next compound
Task: What call does the record list for CSc1nc(SC)c2ncn(C3CC(Oc4ccc(C)cc4)C(COc4ccc(C)cc4)O3)c2n1 (centres undefined) ?
Output: f
